Readings of Emax for the listed compounds
# Experimental System: hAT1R (Homo sapiens, UniProt P30556)
# Sequence (P30556 whole entry): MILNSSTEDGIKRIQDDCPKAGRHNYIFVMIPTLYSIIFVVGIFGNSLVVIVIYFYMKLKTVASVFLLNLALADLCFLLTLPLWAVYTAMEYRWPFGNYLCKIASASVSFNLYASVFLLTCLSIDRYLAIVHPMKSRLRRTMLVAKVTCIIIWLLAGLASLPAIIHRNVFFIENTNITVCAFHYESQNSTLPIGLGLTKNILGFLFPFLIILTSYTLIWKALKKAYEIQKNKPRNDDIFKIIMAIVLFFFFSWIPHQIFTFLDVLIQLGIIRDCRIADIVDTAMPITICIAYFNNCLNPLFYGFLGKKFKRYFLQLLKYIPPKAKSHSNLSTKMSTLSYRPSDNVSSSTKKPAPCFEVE
# Assay Remarks: FLIPR calcium flux assay, Part I: agonist activity
# Type: cell-based
# Test Parameters: ChanTest hAT1R stable cells; % MPE, percent of the maximal possible effect; read-out: hAT1R Agonist Efficacy Agonist (%) Ave
Starred links: 1 amine or outer side, 2 acyl side, 3 side chain; linkers in the order of their positions; H or OH if unused. Non-standard residues stand in square brackets, D forms with d. Residues, ends and D or L forms follow the SMILES beside them. X1 = O=C(CN(C[C@H](O)[C@@H](O)[C@H](O)[C@H](O)CO)[*:1])[*:2]; d1Nal = N[C@H](Cc1cccc2ccccc12)C(=O)O; Chg = N[C@H](C(=O)O)C1CCCCC1
Answer with a number only, understood to be in %.

A selection of reference data follows.
Compound	Emax / %
CNCC(=O)N[C@@H](CCCNC(=N)N)C(=O)N[C@H](C(=O)N[C@@H](Cc1ccc(O)cc1)C(=O)N[C@H](C(=O)N[C@@H](Cc1c[nH]cn1)C(=O)N1CCC[C@H]1C(=O)N[C@H](Cc1ccccc1-c1ccccc1)C(=O)O)C(C)C)C(C)C [Compound 6] (HELM PEPTIDE1{[Sar].R.V.Y.V.H.P.[O=C(O)[C@@H](Cc1ccccc1-c1ccccc1)N[*:1]]}$$$$V2.0)	10
CNCC(=O)N[C@@H](CCCNC(=N)N)C(=O)N[C@H](C(=O)N[C@@H](Cc1ccc(O)cc1)C(=O)N[C@H](C(=O)N[C@@H](Cc1c[nH]cn1)C(=O)N1CCC[C@H]1C(=O)N[C@H](Cc1c(C)cccc1C)C(=O)O)C(C)C)C(C)C [Compound 8] (HELM PEPTIDE1{[Sar].R.V.Y.V.H.P.[Cc1cccc(C)c1C[C@@H](N[*:1])C(=O)O]}$$$$V2.0)	3
CNCC(=O)N[C@@H](CCCNC(=N)N)C(=O)N[C@H](C(=O)N[C@@H](Cc1ccc(O)cc1)C(=O)N[C@H](C(=O)N[C@@H](Cc1c[nH]cn1)C(=O)N1CCC[C@H]1C(=O)N[C@H](Cc1ccccc1C(F)(F)F)C(=O)O)C(C)C)C(C)C [Compound 3] (HELM PEPTIDE1{[Sar].R.V.Y.V.H.P.[O=C(O)[C@@H](Cc1ccccc1C(F)(F)F)N[*:1]]}$$$$V2.0)	5

# evaluate next
Exam item: I have this compound here, CC(C)[C@H](NC(=O)[C@H](CCCNC(=N)N)NC(=O)CNC[C@H](O)[C@@H](O)[C@H](O)[C@H](O)CO)C(=O)N[C@@H](Cc1ccc(O)cc1)C(=O)N[C@H](C(=O)N[C@@H](Cc1c[nH]cn1)C(=O)N1CCC[C@H]1C(=O)N[C@H](Cc1cccc2ccccc12)C(=O)O)C1CCCCC1 [Compound 40, Glac-Arg-Val-Tyr-Chg-His-Pro-(D-1Nal)-OH] (H-[X1]RVY[Chg]HP[d1Nal]-OH) , and I need its recorded Emax.
Marked response: 5
